# Test system: Trichoderma virens ATCC 9645
# assay: growth yield (OD600) with compound + IPBC relative to untreated control; higher = less growth inhibition
# particulars: compound concentration: 100 uM; IPBC concentration: 200 ng/ml; 40 h
Counter-ions that a name gives are not always drawn. Screen size: about 1,300 compounds; about 130 (10%) showed an effect of 50% or more. The list comes from a sample in which strong results are over-represented; it also holds close analogues and randomly drawn compounds.
// reported growth yield for each item listed

molecule	growth yield
COc1ccc(CN(CCN(C)C)c2ccccn2)cc1 [Pyrilamine maleate] + CCCCNC(=O)OCC#CI [3-iodo-2-propynyl butylcarbamate (IPBC)]	82.8%

QUERY: Give its growth yield value. Item: CN(C)CCN(Cc1ccc(Cl)cc1)c1ccccn1 [Chloropyramine hydrochloride] + CCCCNC(=O)OCC#CI [3-iodo-2-propynyl butylcarbamate (IPBC)]
RESULT: 76.1%

QUERY: Recorded growth yield of O=c1[nH]c(=O)n([C@H]2C[C@H](O)[C@@H](CO)O2)cc1C(F)(F)F [Trifluridine] + CCCCNC(=O)OCC#CI [3-iodo-2-propynyl butylcarbamate (IPBC)] , please.
RESULT: 90.4%

QUERY: Using the record for COC1=CC(=O)C[C@@H](C)[C@]12Oc1c(Cl)c(OC)cc(OC)c1C2=O [Griseofulvin] + CCCCNC(=O)OCC#CI [3-iodo-2-propynyl butylcarbamate (IPBC)] , report its growth yield.
RESULT: 48.8%

QUERY: Fill in: growth yield of CCC(C)(CN(C)C)OC(=O)c1ccccc1 (configuration not stated) [Amyleine hydrochloride] + CCCCNC(=O)OCC#CI [3-iodo-2-propynyl butylcarbamate (IPBC)] is ___
RESULT: 88%

QUERY: Which growth yield is reported for this molecule? OC(CNCC(O)C1CCc2cc(F)ccc2O1)C1CCc2cc(F)ccc2O1 (configuration not stated) [Nebivolol hydrochloride] + CCCCNC(=O)OCC#CI [3-iodo-2-propynyl butylcarbamate (IPBC)]
RESULT: 11.3%

QUERY: Need growth yield, item O=C(OCC(O)CO)c1ccccc1Nc1ccnc2cc(Cl)ccc12 (configuration not stated) [Glafenine hydrochloride] + CCCCNC(=O)OCC#CI [3-iodo-2-propynyl butylcarbamate (IPBC)]
RESULT: 84.3%

---

Reported growth yield by item:
# System: Trichoderma virens ATCC 9645
# assay: growth yield (OD600) with compound + IPBC relative to untreated control; higher = less growth inhibition
# particulars: compound concentration: 100 uM; IPBC concentration: 200 ng/ml; 72 h
Where a name gives a salt, the structure may show the parent alone. In all, about 1,300 compounds went through this assay and about 130 (10%) showed an effect of 50% or more. The full list was thinned out, with strong results kept by preference.
Express your answer in %, writing the number without its unit.

Some entries whose results are on file:
molecule	units_label	reported_result
Cc1cccc(CN2CCN(C(c3ccccc3)c3ccc(Cl)cc3)CC2)c1 (stereo not given) [Meclozine dihydrochloride] + CCCCNC(=O)OCC#CI [3-iodo-2-propynyl butylcarbamate (IPBC)]	%	3.78
CCCCN(CCCC)CCC(O)c1cc2c(Cl)cc(Cl)cc2c2cc(C(F)(F)F)ccc12 (stereo not given) [Halofantrine hydrochloride] + CCCCNC(=O)OCC#CI [3-iodo-2-propynyl butylcarbamate (IPBC)]	%	7.66
CC(N)C(O)c1ccccc1 (stereo not given) [Phenylpropanolamine hydrochloride] + CCCCNC(=O)OCC#CI [3-iodo-2-propynyl butylcarbamate (IPBC)]	%	101
COc1ccc([C@@H]2Sc3ccccc3N(CCN(C)C)C(=O)[C@@H]2OC(C)=O)cc1 [Diltiazem hydrochloride] + CCCCNC(=O)OCC#CI [3-iodo-2-propynyl butylcarbamate (IPBC)]	%	88.4

QUERY: Query (molecule): Nc1nc2[nH]cc(CCc3ccc(C(=O)N[C@@H](CCC(=O)O)C(=O)O)cc3)c2c(=O)[nH]1 [Pemetrexed disodium] + CCCCNC(=O)OCC#CI [3-iodo-2-propynyl butylcarbamate (IPBC)] ; field requested: growth yield
RESULT: 94

QUERY: Please look up its growth yield: C=CCOC(Cn1ccnc1)c1ccc(Cl)cc1Cl (stereo not given) [Enilconazole] + CCCCNC(=O)OCC#CI [3-iodo-2-propynyl butylcarbamate (IPBC)]
RESULT: 2.94

QUERY: Dear colleague, I am looking for the recorded growth yield of the following molecule: CN1CCN(C(c2ccccc2)c2ccc(Cl)cc2)CC1 (stereo not given) [Chlorcyclizine hydrochloride] + CCCCNC(=O)OCC#CI [3-iodo-2-propynyl butylcarbamate (IPBC)]
RESULT: 91.6

QUERY: May I ask what growth yield has been recorded for CN1CCCN(C(c2ccccc2)c2ccc(Cl)cc2)CC1 (stereo not given) [Homochlorcyclizine dihydrochloride] + CCCCNC(=O)OCC#CI [3-iodo-2-propynyl butylcarbamate (IPBC)] ?
RESULT: 89.9

QUERY: Returns the measured growth yield for the input molecule. Input: Clc1ccc(COC(Cn2ccnc2)c2ccc(Cl)cc2Cl)c(Cl)c1 (stereo not given) [Miconazole] + CCCCNC(=O)OCC#CI [3-iodo-2-propynyl butylcarbamate (IPBC)]
RESULT: 2.41

QUERY: Given CN(C)CCCN1c2ccccc2CCc2ccccc21 [Imipramine hydrochloride] + CCCCNC(=O)OCC#CI [3-iodo-2-propynyl butylcarbamate (IPBC)] , state its recorded growth yield.
RESULT: 96.3

Hey, just so you know, these numbers are from the supplement of paper PMC8007513.
